These data points were gathered from patent US20260193239A1.

biological target: NLRP3 (Homo sapiens); experiment: THP-1 cells pyroptosis assay; type: cell-based; design: Seed THP-1 cells (25,000 cells/well) containing 1.0 μg/ml LPS; host or cells: THP-1 cells, LPS-primed and nigericin-stimulated; details: 1 μg/ml LPS, nigericin 5 μM, resazurin readout
pIC50: −log10 of the molar value.
ASSAY_READOUT: pIC50

• CCN1CCC[C@@H](Nc2nnc(-c3c(CO)cc4c(c3O)CCO4)n(C)c2=O)C1 (atropisomer, axis not shown) [Example 5a] = 7.08
• CCn1c(-c2c(C)cc3c(c2O)CCO3)nnc(N[C@@H]2CCCN(CCO)C2)c1=O (atropisomer, axis not shown) [Example 9b] = 6.93
• CCc1cc2c(c(O)c1-c1nnc(N[C@@H]3CCCN(CCO)C3)c(=O)n1C)CCO2 (atropisomer, axis not shown) [Example 8b] = 7.80
• CCN1CCC[C@@H](Nc2nnc(-c3c(COC)cc4c(c3O)CCO4)n(C)c2=O)C1 (single isomer, unassigned) [Example 6b] = 7.82
• CCN1CCC[C@@H](Nc2nnc(-c3c(CO)cc4c(c3O)CCO4)n(C)c2=O)C1 (single isomer, unassigned) [Example 5b] = 6.02
• CCN1CCC[C@@H](Nc2nnc(-c3c(CO)cc4c(c3O)CCO4)n(C)c2=O)C1 (atropisomer, axis not shown) [Example 5] = 6.86

----------
molecular target: P-gp (Homo sapiens); construct: expressed in transfected cells; host or cells: LLC-PK1 cells (porcine kidney epithelial cells); assay: Transcellular P-gp assay; assay type: in vitro ADME; settings: LLC-PK1 cells over-expressing human P-gp; read-out: Permeation
Sequence (P08183 whole entry): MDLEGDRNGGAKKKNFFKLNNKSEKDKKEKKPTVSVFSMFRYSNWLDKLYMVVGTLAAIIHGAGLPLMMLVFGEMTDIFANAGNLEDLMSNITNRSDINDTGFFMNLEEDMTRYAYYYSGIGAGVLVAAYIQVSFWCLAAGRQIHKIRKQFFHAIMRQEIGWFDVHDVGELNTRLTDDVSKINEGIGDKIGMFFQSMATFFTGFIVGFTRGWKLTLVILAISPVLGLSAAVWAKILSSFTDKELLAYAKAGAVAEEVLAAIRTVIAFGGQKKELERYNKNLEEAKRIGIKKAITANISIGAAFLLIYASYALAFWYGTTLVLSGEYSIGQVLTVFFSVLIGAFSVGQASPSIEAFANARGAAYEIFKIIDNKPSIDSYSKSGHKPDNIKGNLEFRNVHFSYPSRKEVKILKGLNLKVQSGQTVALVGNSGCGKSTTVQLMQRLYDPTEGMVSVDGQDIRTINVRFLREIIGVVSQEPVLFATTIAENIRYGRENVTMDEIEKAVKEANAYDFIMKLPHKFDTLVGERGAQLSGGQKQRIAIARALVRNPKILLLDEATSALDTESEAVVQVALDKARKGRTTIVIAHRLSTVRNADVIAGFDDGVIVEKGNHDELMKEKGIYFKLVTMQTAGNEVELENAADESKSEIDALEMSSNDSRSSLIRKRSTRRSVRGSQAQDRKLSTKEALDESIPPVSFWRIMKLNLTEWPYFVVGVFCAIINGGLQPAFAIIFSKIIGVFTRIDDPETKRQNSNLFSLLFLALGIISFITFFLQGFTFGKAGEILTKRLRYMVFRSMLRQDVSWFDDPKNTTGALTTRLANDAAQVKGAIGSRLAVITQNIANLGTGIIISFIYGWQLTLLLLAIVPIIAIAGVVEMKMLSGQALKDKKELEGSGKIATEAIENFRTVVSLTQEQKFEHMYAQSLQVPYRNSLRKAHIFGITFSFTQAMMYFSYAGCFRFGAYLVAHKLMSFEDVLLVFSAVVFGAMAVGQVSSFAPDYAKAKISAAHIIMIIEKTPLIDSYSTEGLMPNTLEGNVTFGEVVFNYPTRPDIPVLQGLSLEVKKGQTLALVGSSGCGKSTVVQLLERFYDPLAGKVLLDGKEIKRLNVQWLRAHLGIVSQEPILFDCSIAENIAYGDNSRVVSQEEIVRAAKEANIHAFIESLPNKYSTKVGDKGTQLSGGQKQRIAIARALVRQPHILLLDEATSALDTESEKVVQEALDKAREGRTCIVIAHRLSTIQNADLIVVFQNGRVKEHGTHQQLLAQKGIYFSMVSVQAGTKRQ
ASSAY_READOUT: Papp (×10⁻⁶ cm/s)

• CCN1CCC[C@@H](Nc2nnc(-c3c(C)cc(C(F)(F)F)cc3O)n(C)c2=O)C1 (atropisomer, axis not shown) [Reference Example RE-B, reference compound] = 5.6

----------
target: NLRP3 (Homo sapiens, UniProt Q96P20); experiment: Human whole blood IL-1β release assay; format: cell-based; set-up: Human whole blood in Li-heparin tubes was obtained from healthy donors; from tissue; host or cells: human whole blood from healthy donors, LPS-primed and nigericin-stimulated; conditions: 1 μg/ml LPS, nigericin 10 μM, IL-1β by AlphaLisa
Sequence (Q96P20 whole entry): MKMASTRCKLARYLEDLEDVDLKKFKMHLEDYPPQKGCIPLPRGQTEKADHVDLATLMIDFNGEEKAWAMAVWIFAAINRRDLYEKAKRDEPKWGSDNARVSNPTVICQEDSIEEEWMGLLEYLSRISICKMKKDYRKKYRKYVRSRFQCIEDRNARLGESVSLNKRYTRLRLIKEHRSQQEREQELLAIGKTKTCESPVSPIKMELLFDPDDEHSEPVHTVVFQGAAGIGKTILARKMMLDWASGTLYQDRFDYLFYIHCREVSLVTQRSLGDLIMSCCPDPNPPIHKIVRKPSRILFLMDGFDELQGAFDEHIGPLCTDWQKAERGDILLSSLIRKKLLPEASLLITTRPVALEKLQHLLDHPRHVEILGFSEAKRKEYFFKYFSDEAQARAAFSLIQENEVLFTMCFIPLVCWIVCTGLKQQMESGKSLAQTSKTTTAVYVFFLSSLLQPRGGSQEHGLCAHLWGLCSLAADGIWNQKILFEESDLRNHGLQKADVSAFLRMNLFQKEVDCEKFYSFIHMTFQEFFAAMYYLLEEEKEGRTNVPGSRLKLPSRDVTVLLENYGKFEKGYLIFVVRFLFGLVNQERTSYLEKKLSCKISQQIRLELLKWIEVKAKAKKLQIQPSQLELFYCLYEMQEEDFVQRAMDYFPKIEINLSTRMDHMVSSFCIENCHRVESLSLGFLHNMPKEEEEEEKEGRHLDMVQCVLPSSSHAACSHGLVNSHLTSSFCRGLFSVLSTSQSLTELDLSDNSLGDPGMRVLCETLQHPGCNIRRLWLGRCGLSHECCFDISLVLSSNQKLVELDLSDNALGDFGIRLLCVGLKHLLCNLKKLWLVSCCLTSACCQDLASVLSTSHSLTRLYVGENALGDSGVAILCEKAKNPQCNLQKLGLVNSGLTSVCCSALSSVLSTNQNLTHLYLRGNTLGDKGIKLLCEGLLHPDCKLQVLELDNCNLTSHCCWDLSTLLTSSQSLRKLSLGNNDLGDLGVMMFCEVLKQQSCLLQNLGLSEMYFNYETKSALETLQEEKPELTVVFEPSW
The entries below come with measured IC50 values attached.
ASSAY_READOUT: IC50 (nM)

• CCn1c(-c2c(C)cc3c(c2O)CCO3)nnc(N[C@@H]2CCCN(CCO)C2)c1=O (atropisomer, axis not shown) [Example 9b] = 204
• CCN1CCC[C@@H](Nc2nnc(-c3c(CO)cc4c(c3O)CCO4)n(C)c2=O)C1 (atropisomer, axis not shown) [Example 5a] = 103
• CCN1CCC[C@@H](Nc2nnc(-c3c(COC)cc4c(c3O)CCO4)n(C)c2=O)C1 (single isomer, unassigned) [Example 6b] = 29
• CCc1cc2c(c(O)c1-c1nnc(N[C@@H]3CCCN(CCO)C3)c(=O)n1C)CCO2 (atropisomer, axis not shown) [Example 8b] = 64
